Target: T1, human IL-1α (human, UniProt P01583 113-271)
T1 sequence (looked up): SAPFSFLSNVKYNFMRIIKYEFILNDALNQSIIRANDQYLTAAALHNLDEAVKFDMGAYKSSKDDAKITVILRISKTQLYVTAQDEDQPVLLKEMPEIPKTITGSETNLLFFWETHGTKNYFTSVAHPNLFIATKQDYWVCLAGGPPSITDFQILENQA
Test: cell-based or functional assay

BINDER | ND50 / nM
ABT1-122-18 (other, VK dAb) VL: DIQMTQSPSSLSASVGDRVTITCRASQPIWTELNWYQQKPGKAPKLLVYGSSSLQSGVPSRFSGSGSGTDFTLTISSLQPEDFATYYCQQFAYFPATFGQGTKVEIKR | 7
ABT1-23 (other) VH: EVQLLESGGGLVQPGGSLRLSCAASGFTFSSYPMEWVRQAPGKGLEWVSAIAWPGSMTYYADSVKGRFTISRDNSKNTLYLQMNSLRAEDTAVYYCAKTHRLFDYWGQGTLVTVSS | 5000
ABT1-95-182 (other) VL: DIQMTQSPSSLSASVGDRVTITCRASKPGVRNLRWYQQKPGKAPKLLIYSVSYLEPGVPSRFSGSGSGTDFTLTISSLQPEDFATYHCLQGYRWPPTFGQGTKVEIKR | 0.005
ABT1-141-45 (other, VK dAb) VL: DIQMTQSPSSLSASVGDRVTITCRASQWIQKQLAWYQQKPGKAPKLLIYSSSYLQSGVPSRFSGSGSGTDFTLTISSLQLEDFATYYCQQHLRVPMTLGQGTKVEIKR | 100
